Data origin, for the record: ChEMBL document CHEMBL3879915

Target: Protein arginine N-methyltransferase 5 (Homo sapiens)
Assay: Inhibition of PRMT5 in human Z138 cells assessed as decrease in di-methyl arginine levels after 96 hrs by Western blot method
EC50 values by entry

// below: answered molecules
CN1CCN(c2cccc(C(=O)NCC(O)CN3CCc4ccccc4C3)c2)CC1 (configuration not stated)
0.101 to 1 µM
OC(COc1cccc(-c2cccc3c2oc2ccccc23)c1)CN1CCc2ccccc2C1 (configuration not stated)
1 to 10 µM
O=C(NCC(O)CN1CCc2ccccc2C1)c1ccccn1 (configuration not stated)
0.101 to 1 µM

## Input Give EC50 (Protein arginine N-methyltransferase 5 (Homo sapiens)) of the following molecule: O=C(NC[C@@H](O)CN1CCc2ccccc2C1)Oc1ccccc1
## Output 1 to 10 µM

## Input Give EC50 (Protein arginine N-methyltransferase 5 (Homo sapiens)) of the following molecule: OC(COc1cccc(-c2ccccc2)c1)CN1CCc2ccccc2C1 (configuration not stated)
## Output 1 to 10 µM

## Input Give EC50 (Protein arginine N-methyltransferase 5 (Homo sapiens)) of the following molecule: Cn1cnc2ccc(-c3cc(NCC(O)CN4CCc5ccccc5C4)ccn3)cc21 (configuration not stated)
## Output 1 to 10 µM

---

Target: Protein arginine N-methyltransferase 5 (Homo sapiens, UniProt O14744)
Sequence (O14744 whole entry): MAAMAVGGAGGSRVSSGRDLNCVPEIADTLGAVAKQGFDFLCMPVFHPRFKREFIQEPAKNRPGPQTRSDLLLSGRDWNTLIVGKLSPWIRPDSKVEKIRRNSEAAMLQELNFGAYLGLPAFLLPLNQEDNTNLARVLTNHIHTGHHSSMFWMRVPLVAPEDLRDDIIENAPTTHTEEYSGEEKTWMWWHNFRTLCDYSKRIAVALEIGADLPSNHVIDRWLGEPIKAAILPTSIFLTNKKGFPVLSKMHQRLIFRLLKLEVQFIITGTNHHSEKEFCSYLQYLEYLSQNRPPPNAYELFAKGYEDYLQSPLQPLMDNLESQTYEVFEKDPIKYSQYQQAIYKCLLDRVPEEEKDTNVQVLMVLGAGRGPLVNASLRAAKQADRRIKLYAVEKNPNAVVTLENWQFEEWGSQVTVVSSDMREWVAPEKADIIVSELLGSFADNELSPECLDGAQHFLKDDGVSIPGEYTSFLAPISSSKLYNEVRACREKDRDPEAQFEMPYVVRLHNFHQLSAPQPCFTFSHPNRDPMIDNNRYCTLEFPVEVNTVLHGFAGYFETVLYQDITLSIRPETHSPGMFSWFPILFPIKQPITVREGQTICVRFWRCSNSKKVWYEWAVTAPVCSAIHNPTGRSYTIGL
Assay: Inhibition of PRMT5 in human Z138 cells assessed as decrease in di-methyl arginine levels after 96 hrs by Western blot method
pEC50: −log10 of the molar value.
pEC50 values by entry

// below: answered molecules
Cn1cnc2ccc(-c3ccnc(NC[C@H](O)CN4CCc5ccccc5C4)c3)cc21
6.00 to 7.00
Cc1cn(C)c2cccc(OCC(=O)NCC(O)CN3CCc4ccccc4C3)c12 (stereo not given)
6.00 to 7.00
COc1ccc2cccc(OCC(=O)NC[C@@H](O)CN3CCc4ccccc4C3)c2n1
> 7.00
Cc1ccc(OCC(=O)NCC(O)CN2CCc3ccccc3C2)cc1 (stereo not given)
4.30 to 5.00

Next molecule, please.
## Input Which pEC50 is listed for N#Cc1ccc(-c2cccc(OCC(O)CN3CCc4ccccc4C3)c2)cc1 (stereo not given) ?
## Output 5.00 to 6.00

---

Target: Protein arginine N-methyltransferase 5 (Homo sapiens)
Experiment: Inhibition of PRMT5 in human Z138 cells assessed as decrease in di-methyl arginine levels after 96 hrs by Western blot method
EC50 values by entry

// below: answered molecules
COc1cccc(OCC(=O)NCC(O)CN2CCc3ccccc3C2)c1 (stereo unspecified)
101 to 1000 nM
CC(=O)N1CCC(n2cnc3ccc(-c4ccnc(NCC(O)CN5CCc6ccccc6C5)c4)cc32)CC1 (stereo unspecified)
101 to 1000 nM
OC(COc1cccc(-c2ccc3c(c2)OCO3)c1)CN1CCc2ccccc2C1 (stereo unspecified)
10000 to 40000 nM
O=C(NCC(O)CN1CCc2ccccc2C1)c1ccccc1-c1ccccn1 (stereo unspecified)
1000 to 10000 nM
CS(=O)(=O)N1CCN(c2ccccc2OCC(=O)NCC(O)CN2CCc3ccccc3C2)CC1 (stereo unspecified)
101 to 1000 nM

## Input Which EC50 is listed for Cn1cnc2ccc(-c3cc(NCC(O)CN4CCc5ccccc5C4)ncn3)cc21 (stereo unspecified) ?
## Output 101 to 1000 nM

## Input Which EC50 is listed for Cn1ccc2ccc(-c3cc(NCC(O)CN4CCc5ccccc5C4)ncn3)cc21 (stereo unspecified) ?
## Output 101 to 1000 nM

## Input Which EC50 is listed for NS(=O)(=O)c1ccccc1OCC(=O)NCC(O)CN1CCc2ccccc2C1 (stereo unspecified) ?
## Output 101 to 1000 nM

## Input Which EC50 is listed for OC(COc1cccc(-c2ccc3nn[nH]c3c2)c1)CN1CCc2ccccc2C1 (stereo unspecified) ?
## Output 1000 to 10000 nM

## Input Which EC50 is listed for COc1ccc(-c2cccc(OCC(O)CN3CCc4ccccc4C3)c2)c(C)c1 (stereo unspecified) ?
## Output 1000 to 10000 nM

## Input Which EC50 is listed for OC(COc1cccc(-c2ccc3ncn(C4CCNCC4)c3c2)c1)CN1CCc2ccccc2C1 (stereo unspecified) ?
## Output 101 to 1000 nM
